Numbers sourced from patent US20240002326A1.

Tested on: SOX binding site consensus DNA
Assay Text: Direct DNA-binding assay (SPR), consensus DNA
Protocol Conditions: biotinylated double-strand DNA on streptavidin chip
*1 amine or outer side, *2 acyl side, *3 side chain or, on linkers, in order; H or OH if unused. Where a SMILES comes first, the peptide text is derived from it. Bridges are numbered along the chain shown (N, C = ends). Roman numbers before positions name the chains, in order. [ ]: non-standard residue; d: D form. Actinocin(9to1) = Cc1c2oc3c(C)ccc(C(=O)[*:1])c3nc-2c(C(=O)[*:2])c(N)c1=O; NMeV = CN[C@H](C(=O)O)C(C)C; Sar = CNCC(=O)O

{"Compound": "N=C(N)c1ccc(-c2cc3ccc(C(=N)N)cc3[nH]2)cc1", "binding to consensus DNA (SPR)": "bind to DNA"}
{"Compound": "CC[n+]1c(-c2ccccc2)c2cc(N)ccc2c2ccc(N)cc21 [ethidium bromide]", "binding to consensus DNA (SPR)": "bind to DNA"}
{"Compound": "Cc1c2oc3c(C)ccc(C(=O)N[C@@H]4C(=O)N[C@H](C(C)C)C(=O)N5CCC[C@H]5C(=O)N(C)CC(=O)N(C)[C@@H](C(C)C)C(=O)O[C@@H]4C)c3nc-2c(C(=O)N[C@@H]2C(=O)N[C@H](C(C)C)C(=O)N3CCC[C@H]3C(=O)N(C)CC(=O)N(C)[C@@H](C(C)C)C(=O)O[C@@H]2C)c(N)c1=O [actinomycin D] (I: T[dV]P[Sar][NMeV] / II: T[dV]P[Sar][NMeV]; ester I:1-I:C, II:1-II:C; linker I:N-II:N via Actinocin(9to1))", "binding to consensus DNA (SPR)": "bind to DNA"}
